The sequences listed here are annotated with their binding signal.
# EXPERIMENTAL TARGET: NeuN (Homo sapiens)
# Sequence: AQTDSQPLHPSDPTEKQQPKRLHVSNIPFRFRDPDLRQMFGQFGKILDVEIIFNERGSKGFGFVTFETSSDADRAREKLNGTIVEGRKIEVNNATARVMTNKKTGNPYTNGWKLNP
# METHOD: protein domain microarray probed with biotinylated miRNA; Domain array: 20 mM Tris-HCl pH 7.4, 200 mM KCl, 0.2 mM EDTA, 0.05% NP40, 2 ug/ul heparin, overnight 4 C. ORF array: PBS pH 7.0 with RNase inhibitor, 100 ng RNA; high values mean tight binding
# STATED CONDITIONS: ssRNA
PARAMETER MEASURED: binding signal (fluorescence intensity)

>>> reading("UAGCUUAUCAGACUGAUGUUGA")
1430
>>> reading("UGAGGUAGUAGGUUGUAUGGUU")
2130
>>> reading("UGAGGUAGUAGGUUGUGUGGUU")
1970
>>> reading("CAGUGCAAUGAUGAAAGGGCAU")
2230

Hey, just so you know, these numbers are from paper PMC11574364.
